Assay: Metabolic stability in pooled human liver microsomes
Assay type: in vitro ADME
Settings: human liver microsomes, 1 mg/mL protein, 1 μM compound, 37° C.
In this section we review reported Half-life t½ human values for a set of compounds.

Ask: What Half-life t½ human value was documented for this compound, O=C(NC1(c2ccc(C(F)(F)F)cc2F)COCC1O)c1cnn2cc(C3CC3)cnc12 (single isomer, unassigned) [Example 68] ?
Result: >2.17 h

Ask: Returns the measured Half-life t½ human for the input compound. Input: Cc1cnc2c(C(=O)NC3(c4ccc(C(F)(F)F)cc4F)CCOCC3O)cnn2c1 (single isomer, unassigned) [Example 81b]
Result: >2.17 h

Ask: Which Half-life t½ human value belongs to O=C(NC1(c2ccc(C(F)(F)F)cc2F)COCC1O)c1cnn2cc(C3CC3)cnc12 (single isomer, unassigned) [Example 71] ?
Result: >2.17 h
